biological target: Cbl-b (Homo sapiens (Human), UniProt Q13191); experiment: Cbl-b LCK Ub TR-FRET assay (Cbl-b Lck HTRF); type: biochemical; settings: Cbl-b LCK Ub TR-FRET, Example 121
Sequence (Q13191 40-426): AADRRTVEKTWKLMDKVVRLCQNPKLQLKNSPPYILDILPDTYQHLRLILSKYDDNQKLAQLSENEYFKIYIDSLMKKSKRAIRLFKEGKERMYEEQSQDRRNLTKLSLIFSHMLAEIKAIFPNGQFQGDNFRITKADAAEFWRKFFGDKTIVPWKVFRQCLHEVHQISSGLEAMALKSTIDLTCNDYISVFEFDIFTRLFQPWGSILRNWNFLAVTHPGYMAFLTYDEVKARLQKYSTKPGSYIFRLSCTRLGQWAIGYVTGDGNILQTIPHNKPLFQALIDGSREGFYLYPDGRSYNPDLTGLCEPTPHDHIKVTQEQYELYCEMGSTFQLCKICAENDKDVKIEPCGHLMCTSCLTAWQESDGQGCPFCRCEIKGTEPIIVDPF
readout: log10 IC50 (log10 of the value in µM)
Log scale reminder: IC50 in µM, then log10 taken.

Past entries and their recorded results:
Cn1cnnc1C1(c2cccc(N3Cc4c(cc(C(CF)NC5(C)CCC5)cc4C(F)(F)F)C3=O)c2)CCC1 (stereo not drawn) [Compound 453]    -2.18
CO[C@H]1C[C@](c2cccc(N3Cc4c(cc(CNC5C[C@@H]6C[C@H]5CO6)cc4C(F)(F)F)C3=O)c2)(c2nncn2C)C1 (stereo partly drawn) [Compound 500]    -1.80
COCC1(NCc2cc3c(c(C(F)(F)F)c2)CN(c2cccc([C@]4(c5nncn5C)C[C@H](OC)C4)c2)C3=O)CC1 [Compound 487]    -1.72
Cn1cnnc1[C@@H](c1cccc(N2Cc3c(cc(CNC4(C)CCC4)cc3C(F)(F)F)C2=O)c1)[C@@H]1CCS(=O)(=O)C1 (single isomer, unassigned) [Compound 438]    0.48
CO[C@H]1C[C@](c2cccc(N3Cc4c(cc(CNC5CC(C)(C)C5)cc4C(F)(F)F)C3=O)c2)(c2nncn2C)C1 [Compound 488]    -2.24

With those in mind, consider the next compound.
Record request: log10 IC50 value, item CO[C@H]1C[C@](c2cccc(N3Cc4c(cc(CNCC(C)C)cc4C(F)(F)F)C3=O)c2)(c2nncn2C)C1 [Compound 421]
-2.19

---

Fold of selectivity by entry:
molecular target: Human Cbl-b (residues 40-426) (Homo sapiens (Human), UniProt Q13191); experiment: Cbl-b SPR assay; format: binding; details: C-cbl SPR Kd vs Cbl-b SPR Kd
Sequence (Q13191 40-426): as the sequence (Q13191 40-426) above
Field: numeric (×). Do not append units.

Past entries and their recorded results:
CS[C@H]1C[C@@](c2cccc(N3Cc4c(cc(CNC5(C)CCC5)cc4C(F)(F)F)C3=O)c2)(c2nncn2C)C1    10
CC[C@@H](NC1(C)CCC1)c1cc2c(c(C(F)(F)F)c1)CN(c1cccc([C@H](c3nncn3C)C3COC3)c1)C2=O    5.5
Cn1cnnc1[C@H](c1cccc(N2Cc3c(cc(CNC4(C)CCC4)cc3C(F)(F)F)C2=O)c1)C1CC(OC(F)F)C1 (single isomer, unassigned) [Compound 389]    4.4
Cn1cnnc1C1(c2cccc(N3Cc4c(cc(CNC5(C)CCC5)cc4C(F)(F)F)C3=O)c2)C[S+]([O-])C1 (stereo not drawn)    8
Cn1cnnc1[C@]1(c2cccc(N3Cc4c(cc(CNC5(C)CCC5)cc4C(F)(F)F)C3=O)c2)C[C@](C)(F)C1    3.8

With those in mind, consider the next molecule.
Record request: Fold of selectivity value, item CO[C@H]1C[C@](c2cccc(N3Cc4c(cc(CNC5(C)CCC5)cc4C(F)F)C3=O)c2)(c2nncn2C)C1
16

---

The reader will find pIC50 measurements below, all made with c-Cbl (Homo sapiens (Human)).
Sequence (P22681 47-435): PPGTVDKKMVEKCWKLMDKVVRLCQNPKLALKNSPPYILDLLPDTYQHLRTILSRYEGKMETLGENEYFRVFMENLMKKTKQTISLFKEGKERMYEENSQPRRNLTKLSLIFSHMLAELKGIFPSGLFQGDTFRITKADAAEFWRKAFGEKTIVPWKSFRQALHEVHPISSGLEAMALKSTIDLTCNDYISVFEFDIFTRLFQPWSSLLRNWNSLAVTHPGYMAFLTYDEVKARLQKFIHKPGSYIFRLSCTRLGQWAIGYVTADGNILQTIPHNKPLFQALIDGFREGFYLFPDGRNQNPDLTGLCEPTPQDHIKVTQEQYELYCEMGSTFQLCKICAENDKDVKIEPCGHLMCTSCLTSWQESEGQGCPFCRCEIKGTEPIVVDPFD
Here pIC50 is given on a logarithmic scale as minus log10 of the concentration in mol/L.

CO[C@H]1C[C@@](c2cc(NC3CCC3)cc(N3Cc4c(cc(CNC5(C)CCC5)cc4C(F)(F)F)C3=O)c2)(c2nncn2C)C1 [Compound 217]    7.01
CO[C@H]1C[C@](c2cc(NC3CCC3)cc(N3Cc4c(cc(CNC5(C)CCC5)cc4C(F)(F)F)C3=O)c2)(c2nncn2C)C1 [Compound 211]    7.22

# returns recorded pIC50 (system: c-Cbl (Homo sapiens (Human))) for CO[C@H]1C[C@@](O)(C(c2cccc(N3Cc4c(cc(CNC5(C)CCC5)cc4C(F)(F)F)C3=O)c2)c2nncn2C)C1 (single isomer, unassigned) [Compound 369]
6.00

---

molecular target: Cbl-b (Homo sapiens (Human)); assay: Cbl-b LCK Ub TR-FRET assay (Cbl-b Lck HTRF); assay type: biochemical; conditions: Cbl-b LCK Ub TR-FRET, Example 121
pIC50: −log10 of the molar value.
Label True for high-side pIC50 (at or above 8) and False for low-side pIC50 (below it).

Solved entries:
C[C@@H](NC1(C)CCC1)c1cc2c(c(C(F)(F)F)c1)CN(c1cccc([C@@H](c3nncn3C)C3COC3)c1)C2=O [Compound 443]    False
CO[C@H]1C[C@](c2cccc(N3Cc4c(cc(CNC5(C)COC5)cc4C(F)(F)F)C3=O)c2)(c2nncn2C)C1 [Compound 479]    False
Cn1cnnc1[C@](O)(c1ccccc1)c1cccc(N2Cc3c(Cl)cc(CNC4(C)CCC4)cc3C2=O)c1 (single isomer, unassigned) [Compound 411]    False

Record CO[C@H]1C[C@](c2cccc(N3Cc4c(cc(CN5CCC6(CC5)CC(O)C6)cc4C(F)(F)F)C3=O)c2)(c2nncn2C)C1 [Compound 424] ; criterion: pIC50 no lower than 8. Met?
False

Record Cn1cnnc1[C@]1(c2cccc(N3Cc4c(cc(CNC5(C)CCC5)cc4C(F)F)C3=O)c2)C[C@@H](Cl)C1 [Compound 447] ; criterion: pIC50 no lower than 8. Met?
True

Record CO[C@H]1C[C@](c2cccc(N3Cc4c(cc(CNC(C)C)cc4C(F)(F)F)C3=O)c2)(c2nncn2C)C1 [Compound 419] ; criterion: pIC50 no lower than 8. Met?
False

---

target: Human Cbl-b (residues 40-426) (Homo sapiens (Human), UniProt Q13191); experiment: Cbl-b SPR assay; assay type: binding; details: C-cbl SPR Kd vs Cbl-b SPR Kd
readout: log10(Fold of selectivity) (log10 of the value in ×)
Log scale reminder: Fold of selectivity in ×, then log10 taken.

Past entries and their recorded results:
Cn1cnnc1[C@@H](c1cccc(N2Cc3c(cc(CNC4(C)CCC4)cc3C(F)F)C2=O)c1)C1CC(F)C1 (single isomer, unassigned) [Compound 458]    1.00
Cn1cnnc1[C@@H](C[C@H]1CCOC1)c1cccc(N2Cc3c(cc(CNC4(C)CCC4)cc3C(F)(F)F)C2=O)c1 [Compound 277]    0.72
Cn1cnnc1[C@]1(c2cccc(N3Cc4c(cc(CNC5(C)CCC5)cc4C(F)(F)F)C3=O)c2)C[C@@H](CO)C1.O=CO [Compound 100]    1.08
Cn1cnnc1[C@]1(c2cc(NC3CC(F)(F)C3)nc(N3Cc4c(cc(CNC5(C)CCC5)cc4C(F)(F)F)C3=O)c2)C[C@H](C)C1 [Compound 49]    0.85
C[C@H]1C[C@](c2cccc(N3Cc4c(cc(CNC5(C)CCC5)cc4C(F)(F)F)C3=O)c2)(c2nncn2C)O1 [Compound 125]    1.04
COC[C@H]1C[C@@](c2cccc(N3Cc4c(cc(CNC5(C)CCC5)cc4C(F)(F)F)C3=O)c2)(c2nncn2C)C1 [Compound 103]    0.89

# returns recorded log10(Fold of selectivity) (system: Human Cbl-b (residues 40-426) (Homo sapiens (Human), UniProt Q13191)) for CO[C@H]1C[C@](c2cccc(N3Cc4c(cc(CNC[C@@H]5[C@@H](C)C5(F)F)cc4C(F)(F)F)C3=O)c2)(c2nncn2C)C1 [Compound 503]
1.34

# returns recorded log10(Fold of selectivity) (system: Human Cbl-b (residues 40-426) (Homo sapiens (Human), UniProt Q13191)) for CO[C@H]1C[C@@](c2cccc(N3Cc4c(cc([C@H](C)NC5(C)CCC5)cc4C(F)(F)F)C3=O)c2)(c2nncn2C)C1 (single isomer, unassigned) [Compound 176]
0.83

# returns recorded log10(Fold of selectivity) (system: Human Cbl-b (residues 40-426) (Homo sapiens (Human), UniProt Q13191)) for Cn1cnnc1[C@@H](c1cccc(N2Cc3c(cc(CNC4(C)CCC4)cc3C(F)(F)F)C2=O)c1)C1CC(OCC(F)F)C1 (stereo partly drawn) [Compound 260]
0.94

# returns recorded log10(Fold of selectivity) (system: Human Cbl-b (residues 40-426) (Homo sapiens (Human), UniProt Q13191)) for Cn1cnnc1C1(c2cccc(N3Cc4c(cc(CNC5(C)CCC5)cc4C(F)(F)F)C3=O)c2)CC(=O)C1 [Compound 19]
0.70

# returns recorded log10(Fold of selectivity) (system: Human Cbl-b (residues 40-426) (Homo sapiens (Human), UniProt Q13191)) for CCNc1cc(N2Cc3c(cc(CNC4(C)CCC4)cc3C(F)(F)F)C2=O)cc([C@]2(c3nncn3C)C[C@H](C)C2)c1 [Compound 90]
0.30

# returns recorded log10(Fold of selectivity) (system: Human Cbl-b (residues 40-426) (Homo sapiens (Human), UniProt Q13191)) for Cn1ccnc1[C@@H](c1cccc(N2Cc3c(cc(CNC4(C)CCC4)cc3C(F)(F)F)C2=O)c1)C1COC1 (single isomer, unassigned) [Compound 352]
0.88
